species on record: Rattus norvegicus; assay: Open TG-GATES - Regimen: Daily Repeat; assay type: toxicity, organism-based, Sprague-Dawley; design: regimen Daily Repeat, gender Male, age 6 weeks; conditions: in vivo, po, 1000 mg/kg, […], tissue Plasma, route gavage, dose level High, time 28 day
Below is a list of entries, each paired with its recorded DBIL value.
readout: DBIL (mg/dL)

INSERT INTO assay_data (compound, readout, numeric_value) VALUES
  ('O=C(OC[C@H]1O[C@@H](OC(=O)c2cc(O)c(O)c(OC(=O)c3cc(O)c(O)c(O)c3)c2)[C@H](OC(=O)c2cc(O)c(O)c(OC(=O)c3cc(O)c(O)c(O)c3)c2)[C@@H](OC(=O)c2cc(O)c(O)c(OC(=O)c3cc(O)c(O)c(O)c3)c2)[C@@H]1OC(=O)c1cc(O)c(O)c(OC(=O)c2cc(O)c(O)c(O)c2)c1)c1cc(O)c(O)c(OC(=O)c2cc(O)c(O)c(O)c2)c1 [TANNIC ACID]', 'DBIL', 0.006),
  ('CNC(=C[N+](=O)[O-])NCCSCc1ccc(CN(C)C)o1 [RANITIDINE]', 'DBIL', 0.094),
  ('CN/C(=N/CCSCc1nc[nH]c1C)NC#N [CIMETIDINE]', 'DBIL', 0.1),
  ('Cc1nnc2n1-c1ccc(Cl)cc1C(c1ccccc1Cl)=NC2 [TRIAZOLAM]', 'DBIL', 0.002),
  ('CCOc1ccc(NC(C)=O)cc1 [PHENACETIN]', 'DBIL', 0.038),
  ('COC(=O)C1=C(C)NC(C)=C(C(=O)OC)C1c1ccccc1[N+](=O)[O-] [NIFEDIPINE]', 'DBIL', 0.012);

----------
species on record: Rattus norvegicus; assay: Open TG-GATES - Regimen: Daily Repeat; assay type: toxicity, organism-based, Sprague-Dawley; set-up: regimen Daily Repeat, gender Male, age 6 weeks; conditions: in vivo, po, 0 mg/kg, […], tissue Blood, route gavage, dose level Control, time 7 day
Below is a list of entries, each paired with its recorded Hb value.
readout: Hb (g/dL)

INSERT INTO measurements (molecule, readout, numeric_value) VALUES
  ('COC(=O)C1=C(C)NC(C)=C(C(=O)OC)C1c1ccccc1[N+](=O)[O-] [NIFEDIPINE]', 'Hb', 13.7),
  ('Brc1ccccc1 [BROMOBENZENE]', 'Hb', 13.4),
  ('CNC(=C[N+](=O)[O-])NCCSCc1ccc(CN(C)C)o1 [RANITIDINE]', 'Hb', 13.9),
  ('CCCc1cc(=O)[nH]c(=S)[nH]1 [PROPYLTHIOURACIL]', 'Hb', 13.8),
  ('O=C(OC[C@H]1O[C@@H](OC(=O)c2cc(O)c(O)c(OC(=O)c3cc(O)c(O)c(O)c3)c2)[C@H](OC(=O)c2cc(O)c(O)c(OC(=O)c3cc(O)c(O)c(O)c3)c2)[C@@H](OC(=O)c2cc(O)c(O)c(OC(=O)c3cc(O)c(O)c(O)c3)c2)[C@@H]1OC(=O)c1cc(O)c(O)c(OC(=O)c2cc(O)c(O)c(O)c2)c1)c1cc(O)c(O)c(OC(=O)c2cc(O)c(O)c(O)c2)c1 [TANNIC ACID]', 'Hb', 12.8),
  ('CN(C)CCC(c1ccc(Cl)cc1)c1ccccn1 (configuration not stated) [CHLORPHENIRAMINE]', 'Hb', 14),
  ('Nc1c2c(nc3ccccc13)CCCC2 [TACRINE]', 'Hb', 13.5);
